Tested on: Escherichia coli
Test: Antibacterial activity against Escherichia coli after 24 hr by agar streak dilution method
Assay type: functional
quantity_measured: MIC (µg/mL)

>  <compound>
Cc1cc(=O)oc2cc(Oc3nc(Nc4ccc(N5C(=O)C(CN6CCN(c7ccccn7)CC6)SC5c5ccccc5)cc4)nc(N(C)C)n3)ccc12 (configuration not stated)

>  <observed_result>
100

$$$$
>  <compound>
Cc1cc(=O)oc2cc(Oc3nc(Nc4ccc(N5C(=O)C(CN6CCN(c7ccccn7)CC6)SC5c5ccc(Cl)cc5Cl)cc4)nc(N(C)C)n3)ccc12 (configuration not stated)

>  <observed_result>
25

$$$$
>  <compound>
Cc1cc(=O)oc2cc(Oc3nc(Nc4ccc(N5C(=O)C(CN6CCN(c7ccccn7)CC6)SC5c5ccc(Cl)cc5)cc4)nc(N(C)C)n3)ccc12 (configuration not stated)

>  <observed_result>
50

$$$$
>  <compound>
Cc1cc(=O)oc2cc(Oc3nc(Nc4ccc(N5C(=O)CSC5c5ccc(O)cc5)cc4)nc(N(C)C)n3)ccc12 (configuration not stated)

>  <observed_result>
12.5

$$$$
>  <compound>
Cc1cc(=O)oc2cc(Oc3nc(Nc4ccc(N5C(=O)CSC5c5ccccc5)cc4)nc(N(C)C)n3)ccc12 (configuration not stated)

>  <observed_result>
100

$$$$
>  <compound>
Cc1cc(=O)oc2cc(Oc3nc(Nc4ccc(N5C(=O)CSC5c5ccc(Cl)cc5)cc4)nc(N(C)C)n3)ccc12 (configuration not stated)

>  <observed_result>
50

$$$$
>  <compound>
Cc1cc(=O)oc2cc(Oc3nc(Nc4ccc(/N=C/c5ccc(O)cc5)cc4)nc(N(C)C)n3)ccc12

>  <observed_result>
25

$$$$

* * *

Tested on: Aspergillus clavatus
Experiment: Antifungal activity against Aspergillus clavatus at 100 ug/disc after 48 hr by paper disk diffusion method
Format: functional
Conditions: read-out: IZ

>  <compound>
Cc1cc(=O)oc2cc(Oc3nc(Nc4ccc(/N=C/c5ccc(F)cc5)cc4)nc(N(C)C)n3)ccc12

>  <system_tested>
Aspergillus clavatus

>  <zone of inhibition at 100 µg/disc, mm>
19

$$$$
>  <compound>
Cc1cc(=O)oc2cc(Oc3nc(Nc4ccc(/N=C/c5ccccc5Br)cc4)nc(N(C)C)n3)ccc12

>  <system_tested>
Aspergillus clavatus

>  <zone of inhibition at 100 µg/disc, mm>
18

$$$$
>  <compound>
Cc1cc(=O)oc2cc(Oc3nc(Nc4ccc(N5C(=O)C(CN6CCN(c7ccccn7)CC6)SC5c5ccc(Cl)cc5)cc4)nc(N(C)C)n3)ccc12 (centres undefined)

>  <system_tested>
Aspergillus clavatus

>  <zone of inhibition at 100 µg/disc, mm>
25

$$$$
>  <compound>
COc1ccc(C2SC(CN3CCN(c4ccccn4)CC3)C(=O)N2c2ccc(Nc3nc(Oc4ccc5c(C)cc(=O)oc5c4)nc(N(C)C)n3)cc2)cc1OC (centres undefined)

>  <system_tested>
Aspergillus clavatus

>  <zone of inhibition at 100 µg/disc, mm>
17

$$$$
>  <compound>
Cc1cc(=O)oc2cc(Oc3nc(Nc4ccc(N5C(=O)CSC5c5ccc(Cl)cc5)cc4)nc(N(C)C)n3)ccc12 (centres undefined)

>  <system_tested>
Aspergillus clavatus

>  <zone of inhibition at 100 µg/disc, mm>
21

$$$$
>  <compound>
Cc1cc(=O)oc2cc(Oc3nc(Nc4ccc(/N=C/c5ccc(Cl)cc5)cc4)nc(N(C)C)n3)ccc12

>  <system_tested>
Aspergillus clavatus

>  <zone of inhibition at 100 µg/disc, mm>
18

$$$$
>  <compound>
Cc1cc(=O)oc2cc(Oc3nc(Nc4ccc(N5C(=O)C(CN6CCN(c7ccccn7)CC6)SC5c5ccc([N+](=O)[O-])cc5)cc4)nc(N(C)C)n3)ccc12 (centres undefined)

>  <system_tested>
Aspergillus clavatus

>  <zone of inhibition at 100 µg/disc, mm>
20

$$$$
>  <compound>
Cc1cc(=O)oc2cc(Oc3nc(Nc4ccc(N5C(=O)CSC5c5ccc(O)cc5O)cc4)nc(N(C)C)n3)ccc12 (centres undefined)

>  <system_tested>
Aspergillus clavatus

>  <zone of inhibition at 100 µg/disc, mm>
19

$$$$
>  <compound>
Cc1cc(=O)oc2cc(Oc3nc(Nc4ccc(N5C(=O)CSC5c5ccccc5Br)cc4)nc(N(C)C)n3)ccc12 (centres undefined)

>  <system_tested>
Aspergillus clavatus

>  <zone of inhibition at 100 µg/disc, mm>
20

$$$$
>  <compound>
Cc1cc(=O)oc2cc(Oc3nc(Nc4ccc(N5C(=O)C(CN6CCN(c7ccccn7)CC6)SC5c5ccc(Cl)cc5Cl)cc4)nc(N(C)C)n3)ccc12 (centres undefined)

>  <system_tested>
Aspergillus clavatus

>  <zone of inhibition at 100 µg/disc, mm>
23

$$$$
>  <compound>
Cc1cc(=O)oc2cc(Oc3nc(Nc4ccc(N5C(=O)CSC5c5cccc(F)c5)cc4)nc(N(C)C)n3)ccc12 (centres undefined)

>  <system_tested>
Aspergillus clavatus

>  <zone of inhibition at 100 µg/disc, mm>
21

$$$$
>  <compound>
Cc1cc(=O)oc2cc(Oc3nc(Nc4ccc(N5C(=O)C(CN6CCN(c7ccccn7)CC6)SC5c5cccc(F)c5)cc4)nc(N(C)C)n3)ccc12 (centres undefined)

>  <system_tested>
Aspergillus clavatus

>  <zone of inhibition at 100 µg/disc, mm>
25

$$$$
>  <compound>
Cc1cc(=O)oc2cc(Oc3nc(Nc4ccc(N5C(=O)CSC5c5ccc(F)cc5)cc4)nc(N(C)C)n3)ccc12 (centres undefined)

>  <system_tested>
Aspergillus clavatus

>  <zone of inhibition at 100 µg/disc, mm>
22

$$$$
>  <compound>
Cc1cc(=O)oc2cc(Oc3nc(Nc4ccc(N5C(=O)C(CN6CCN(c7ccccn7)CC6)SC5c5ccc(Cl)c(Cl)c5)cc4)nc(N(C)C)n3)ccc12 (centres undefined)

>  <system_tested>
Aspergillus clavatus

>  <zone of inhibition at 100 µg/disc, mm>
20

$$$$
